biological target: RORγ (UniProt P51449); assay: RORγ Gal4 Reporter Gene Assay in 293T cells (firefly and renilla luciferase); format: cell-based, human
MEASURED METRIC: pIC50 (REN)

compound="Cc1c(C(N)=O)cc(-c2cc(C(C)(C)C)c3c(c2)C2(CCO3)CC2)n1CC1CCCCC1 [1/105]" result=6.6/6.5/6.5
compound="CCN(C(C)(C)C)S(=O)(=O)c1ccc(-c2cc(C(=O)NCC(C)(C)O)c(C)n2CC2CCCCC2)cc1C(C)(C)C [9/10]" result=6.5/7.7/7.2
compound="COCc1c(C(=O)NC2CCOCC2)cc(-c2ccc(S(=O)(=O)NC(C)(C)C)c(C(C)(C)C)c2)n1CC1CCCCC1 [1/29]" result=6.2/7.2/7.2
compound="Cc1c(C(=O)NCCC[S+](C)[O-])cc(-c2cc(C(C)(C)C)c3c(c2)C2(CCO3)CC2)n1CC1CCCCC1 (stereo not shown) [17/2]" result=6.0/6.6/6.5

---

molecular target: RORγ (UniProt P51449); test: RORγ Gal4 Reporter Gene Assay in 293T cells (firefly and renilla luciferase); type: cell-based, human; settings: second value of the cell; Gal4 reporter gene assay in 293T cells, firefly luciferase
MEASURED METRIC: pIC50 (FF)

compound=CC(C)(C)NS(=O)(=O)c1ccc(-c2cc(C(=O)N[C@H]3C[C@H](C(=O)O)C3)c(Cl)n2CC2CCCCC2)c2ccccc12 relation_operator== numeric_result=8.1
compound=Cc1c(C(=O)NCC(C)(C)C(=O)O)cc(-c2cc(C(C)(C)C)nc(C(C)(C)C)n2)n1CC1CCCCC1 relation_operator== numeric_result=6.8
compound=Cc1c(C(=O)N2CC(CC(=O)O)C2)cc(-c2ccc(S(=O)(=O)NC(C)(C)C)c(C(F)(F)F)c2)n1CC1CCCCC1 relation_operator== numeric_result=6.1
compound=Cc1c(C(=O)NC2COC2)cc(-c2cc(C(=O)NC(C)C)cc(C(F)(F)F)c2)n1CC1CCCCC1 relation_operator== numeric_result=6.3
compound="COC(C)(c1cc(-c2cc(C(=O)NC3CCOCC3)c(C)n2CC2CCCCC2)cc(C(C)(C)C)c1)C(F)(F)F (stereo not shown)" relation_operator== numeric_result=6.9
compound=COC(=O)[C@H]1C[C@H](NC(=O)c2cc(-c3cc(C(C)(C)C)cc(C4(C)CC4)c3)n(CC3CCCCC3)c2C)C1 relation_operator== numeric_result=7.2
compound=Cc1c(C(=O)N[C@H]2C[C@H](C(=O)O)C2)c(Cl)c(-c2cc(C(C)(C)C)cc(C3(C)CC3)c2)n1CC1CCCCC1 relation_operator== numeric_result=7.2
compound=Cc1c(C(=O)N[C@H]2C[C@H](C(=O)O)C2)cc(-c2ccc(S(=O)(=O)NC(C)(C)C)c3c2CCCC3)n1CC1CCCCC1 relation_operator== numeric_result=7.7
compound=Cc1c(C(=O)NC2CCOCC2)cc(-c2ccc(S(=O)(=O)NC(C)(C)C)c(C(F)(F)F)c2)n1CC1(O)CCCCC1 relation_operator=< numeric_result=4.7
compound=Cc1cc(C(C)(C)C)cc(-c2cc(C(=O)NCC(C)(C)O)c(C)n2CC2CCCCC2)c1OC(F)F relation_operator== numeric_result=6.5
compound=Cc1c(C(=O)N[C@H]2C[C@H](C(=O)O)C2)cc(-c2cc(C(C)(C)C)cc(C3(C)CC3)c2)n1CC1CCCCC1 relation_operator== numeric_result=7.8
compound=Cc1c(C(=O)NC2CCOCC2)cc(-c2ccc(C(=O)NC3CCCCC3)c(C(F)(F)F)c2)n1CC1CCCCC1 relation_operator== numeric_result=6.4
compound=Cc1c(C(=O)NC2CCOCC2)cc(-c2ccc(S(=O)(=O)NC3(C#N)CC3)c(C(F)(F)F)c2)n1CC1CCCCC1 relation_operator== numeric_result=7.7
compound=Cc1c(C(=O)NC23CCC(C(=O)O)(CC2)CC3)cc(-c2cc(C(C)(C)O)cc(C3(C)CC3)c2)n1CC1CCCCC1 relation_operator== numeric_result=7.3
compound=Cc1c(C(=O)NCC2COC2)cc(-c2ccc(S(=O)(=O)NC(C)(C)C)c(C(C)(C)C)c2)n1CC1CCCCC1 relation_operator== numeric_result=7.1

---

biological target: UniProt P51449; test: RORγ Gal4 Reporter Gene Assay in 293T cells (firefly and renilla luciferase); assay type: cell-based, human; conditions: third value of the cell; Gal4 reporter gene assay in 293T cells, renilla normalised luciferase
MEASURED METRIC: pIC50 (REN)

compound=Cc1c(C(=O)N[C@H]2C[C@H](C(=O)O)C2)cc(-c2cc(C(C)(C)C)nc(C(C)(C)C)n2)n1CC1CCCCC1 numeric_result=7.0
compound="Cc1c(C(=O)NC2CNC(=O)C23CCOCC3)cc(-c2ccc(S(=O)(=O)NC(C)(C)C)c(C(F)(F)F)c2)n1CC1CCCCC1 (stereo not drawn)" numeric_result=6.5
compound=Cc1c(S(=O)(=O)NC(C)(C)C)ccc(-c2cc(C(=O)NC3CCOCC3)c(C)n2CC2CCCCC2)c1OC(F)F numeric_result=7.4

---

Target: RORγ ligand binding domain (LBD) (Homo sapiens, UniProt P51449)
Construct: made in house; host or cells: E. coli BL-21 (BL3), vector pDEST15
Sequence (P51449 269-508 limits assumed): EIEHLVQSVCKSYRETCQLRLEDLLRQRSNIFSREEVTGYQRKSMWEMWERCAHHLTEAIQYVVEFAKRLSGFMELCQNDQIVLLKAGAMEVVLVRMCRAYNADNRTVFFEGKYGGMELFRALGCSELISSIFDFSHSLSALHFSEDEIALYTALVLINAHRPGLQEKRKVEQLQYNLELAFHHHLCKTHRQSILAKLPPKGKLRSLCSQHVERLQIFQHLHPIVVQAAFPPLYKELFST
Test: TR-FRET Activity Assay (ligand sensing, RORγ-LBD / coactivator peptide interaction, LANCE)
Assay type: biochemical
Settings: first value of the cell FRET/FF/REN; TR-FRET activity assay; read-out: pIC50 (FRET) (converted)
IC50 reference
MEASURED METRIC: IC50

structure_smiles_string=Cc1c(C(=O)NC2CCOCC2)cc(-c2cc(Cl)c(S(=O)(=O)NC(C)(C)C)c(Cl)c2)n1CC1CCCCC1 measured_on="RORγ ligand binding domain (LBD) (Homo sapiens, UniProt P51449)" result="0.2 µM"
structure_smiles_string=Cc1c(C(=O)N[C@H]2C[C@H](C(=O)O)C2)cc(-c2cc(C(C)(C)C)nc(C3(C)CC3)n2)n1CC1CCCCC1 measured_on="RORγ ligand binding domain (LBD) (Homo sapiens, UniProt P51449)" result="0.316 µM"
structure_smiles_string=Cc1c(C(=O)NC2COC2)cc(-c2ccc(C(=O)NC(C)(C)C)c(C(C)(C)C)c2)n1CC1CCCCC1 measured_on="RORγ ligand binding domain (LBD) (Homo sapiens, UniProt P51449)" result="3.98 µM"
structure_smiles_string=Cc1c(C(=O)NCCC(C)(C)C(=O)O)cc(-c2cc(C(C)(C)C)cc(C3(C)CC3)c2)n1CC1CCCCC1 measured_on="RORγ ligand binding domain (LBD) (Homo sapiens, UniProt P51449)" result="1 µM"
structure_smiles_string=Cc1c(C(=O)NC2COC2)cc(-c2cc(C(=O)NC(C)C)cc(C(F)(F)F)c2)n1CC1CCCCC1 measured_on="RORγ ligand binding domain (LBD) (Homo sapiens, UniProt P51449)" result="1 µM"
structure_smiles_string=Cc1c(C(=O)N2CC(O)C2)cc(-c2cc(C(C)(C)C)cc(C(C)(C)C)c2)n1CC1CCCCC1 measured_on="RORγ ligand binding domain (LBD) (Homo sapiens, UniProt P51449)" result="0.501 µM"
structure_smiles_string=Cc1c(C(=O)NC2CCOCC2)cc(-c2ccc(-c3ccnn3C(C)C)c(C(C)(C)C)c2)n1CC1CCCCC1 measured_on="RORγ ligand binding domain (LBD) (Homo sapiens, UniProt P51449)" result="0.2 µM"
structure_smiles_string=Cc1c(C(=O)NCC(C)(C)O)cc(-c2cc(C(C)(C)C)c3c(c2)C(C)(C)CO3)n1CC1CCCCC1 measured_on="RORγ ligand binding domain (LBD) (Homo sapiens, UniProt P51449)" result="0.316 µM"
structure_smiles_string=Cc1c(C(=O)NC2CCOCC2)cc(-c2ccc(S(=O)(=O)NC(C)(C)CC(F)(F)F)c(C(F)(F)F)c2)n1CC1CCCCC1 measured_on="RORγ ligand binding domain (LBD) (Homo sapiens, UniProt P51449)" result="0.126 µM"
structure_smiles_string=Cc1c(C(=O)N[C@H]2C[C@H](C(=O)O)C2)cc(-c2cc(C(F)(F)F)c3c(c2)C(C)(C)C(=O)N3C)n1CC1CCCCC1 measured_on="RORγ ligand binding domain (LBD) (Homo sapiens, UniProt P51449)" result="1.26 µM"
structure_smiles_string=Cc1c(C(=O)NCC2(O)CCOCC2)cc(-c2ccc(S(=O)(=O)NC(C)(C)C)c3ccccc23)n1CC1CCCCC1 measured_on="RORγ ligand binding domain (LBD) (Homo sapiens, UniProt P51449)" result="1 µM"
structure_smiles_string=Cc1c(C(=O)NCC(C)(C)O)cc(-c2cc(C(=O)NC(C)C)cc(C(C)(C)C)c2)n1CC1CCCCC1 measured_on="RORγ ligand binding domain (LBD) (Homo sapiens, UniProt P51449)" result="1 µM"
structure_smiles_string=Cc1c(C(=O)NCCc2nn[nH]n2)cc(-c2ccc(S(=O)(=O)NC(C)(C)C)c(C(C)(C)O)c2)n1CC1CCCCC1 measured_on="RORγ ligand binding domain (LBD) (Homo sapiens, UniProt P51449)" result="1 µM"
structure_smiles_string=Cc1c(C(=O)N2CC(O)C2)cc(-c2ccc(S(=O)(=O)NC(C)(C)C)c(C(C)(C)C)c2)n1CC1CCCCC1 measured_on="RORγ ligand binding domain (LBD) (Homo sapiens, UniProt P51449)" result="1.26 µM"
